Cited source: the domain aggregation screens of Martell et al. (2025)

TEST DETAILS: soluble fraction after stress (log2 fold change); higher = more stays soluble; pooled small domains, quantitative proteomics;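 note: 20 min heating vs room temperature control held 20 min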
DETAILS: stress: 75 degC
METRIC NAME: soluble fraction (log2)
Number, no unit, nothing else.

# example entries with known answers
HMMNNKEIGTRIAVLRKGMGDSQAKLAERLDVSPQAVSKWETGQSLPDIGNLLKLSWLFRTSINHILEGS :: -2.18
HMKTRYPNVYQDEKGKFFYQIFIGTDTNGRKKLKKGRRDALGHPFSSAYQASKEAKRVQALYANVS :: -2.02
HMKIDLKQIEGVLDELAKVKGSLITILQKTQETYGYLPKEAIIYISERTGIAESEIMGVATFYTQFRL :: -0.45

For the sequence HMSDSLVLTGVAYVDGKPVVTLFDKVKKESLVVTDQPNLKGWTLVEATQSSDIKRATAKVNIGGEPVSIRY , what soluble fraction (log2) is on record?
-0.0165

Data request, read-out soluble fraction (log2), for HMTQEAMRSLRKSLQNLSSRQQVIFMLRHYEGLALKEIAEHLGLETGTVKAHLHRAVTQLRKDLVE
-1.85

Please report the recorded soluble fraction (log2) for HMIDYTDTSAVKDSAAVAGRVREMINEGVPIADVNAFIRSASENGLISDDSARRLRYMNDSR .
-0.0436

Give its soluble fraction (log2) value. Item: HMKDYKSALQELIQSGDKRVISYHTLKETGPSHNREFEAAVKLDGNIILGVGKGKTKKEAEQNAAHEALKK
-0.0221

* * *

Parameter soluble fraction (log2): see the listing below.
TEST DETAILS: soluble fraction after stress (log2 fold change); higher = more stays soluble; pooled small domains, quantitative proteomics
DETAILS: stress: 75 degC
Respond numerically, and do not add a unit to the figure.

# query: soluble fraction (log2) of entry HMNALVAKYKQGVTEEQQQGQGIIIIKRVVVRDQEAWVYEKKIFDWGGVSYFRDKQRITASTFNQETAL
-2.79

Consider the sequence HMTETTTVPKLKGLTKDEAEDAAKSSKIKLEFIDEISKTVEAGVIIKQEKDEGETVNAGDTVKVYVSIGT and give its measured soluble fraction (log2).
0.472

Form field: reported soluble fraction (log2) of HMAGSTAASKHALALLNTARHSIRDGNLTSAAAEIKQALATSQEQIVITEARSLMTAMEARATTRRATVLQ
-0.41

* * *

TEST DETAILS: soluble fraction after stress (log2 fold change); higher = more stays soluble; pooled small domains, quantitative proteomics
DETAILS: stress: 75 degC
# label = Condition met if soluble fraction (log2) >= -0.5 else Condition not met

HMDIEHREMKLQKLVITADSPLVGKTLKESNVRQRYNFMVVGVEEGQKNLTMINPNRRFEVGDIVWVVGEE :: Condition not met
HMKLNKRQYAYQVIRSRILDGTYVPGQRIIIDQIAKEVNSSHIPVREAIHQLESEQLIDYEPNIGAIVKG :: Condition met
HMIYMIDPNDEIAVKLDEIYQRYLNRTIDPEGLIFFYNQIRNAQMGYSDVEKRILESPEYVSIPK :: Condition not met
HMRKATEVPFTAFKDSIENSHGKLSKAGLARHLADEYGMSQRNMERRINNLIDNKTIKYGNEGGLVWIG :: Condition met
HMKYKWLAGQLRRELLENGGKKGYKLPTELELARRYQLSRQTVRRALQLLEEEGLILRRQGSGAYATGKPP :: Condition not met
HMFEDEYLETMYAFYETDPQALVRTGDLASSLKVSPASATEMVQRLASKGFVDYIPYKGASLTELGLAM :: Condition met
HMGTLSLLVQKLMAVGLEGAKASEIVERFDRERIERQINALPSRKIKSSRTGFLIRAIELDIPVE :: Condition not met

Note: attention shifts to another entry.
Please indicate if the recorded soluble fraction (log2) for HMTNEQLSKAKSWVQIAVYAAEKLYGAGNGDQKLVYAEEILRKHGIRLDTATLKAMIDAQIKEMEN meets or exceeds -0.5.
Condition not met
